Target: T1, soluble form of human CD16A (sCD16A) (human, UniProt P08637 17-203)
T1 construct: CD16A gene truncated just prior to the transmembrane region, expressed in HEK-293; The last seven residues come from vector pCDNA3.1; also called sFcRIIIa
T1 sequence (P08637 other isoform, or with tags, fused parts or gaps limits assumed): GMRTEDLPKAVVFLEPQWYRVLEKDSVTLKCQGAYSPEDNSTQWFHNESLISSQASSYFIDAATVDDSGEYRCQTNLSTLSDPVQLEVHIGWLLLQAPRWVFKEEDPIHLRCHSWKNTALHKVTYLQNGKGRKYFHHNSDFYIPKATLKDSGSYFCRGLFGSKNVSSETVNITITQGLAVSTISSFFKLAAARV
Experiment: ELISA, sCD16A captured by mAb LNK-16

| binder | binding result |
| --- | --- |
| hu3G8VH-3/hu3G8VL-1 (antibody, V domains shown, Human Cγ1/Cκ constant regions; HEK-293) VH: QVTLRESGPALVKPTQTLTLTCTFSGFSLRTSGMGVGWIRQPPGKALEWLAHIWWDDDKRYNPALKSRLTISKDTSKNQVVLTMTNMDPVDTATYYCARINPAWFAYWGQGTLVTVSS VL: DIVMTQSPDSLAVSLGERATINCKASQSVDFDGDSFMNWYQQKPGQPPKLLIYTTSNLESGVPDRFSGSGSGTDFTLTISSLQAEDVAVYYCQQSNEDPYTFGQGTKLEIK | binds |
| hu3G8VH-17/hu3G8VL-1 (antibody, V domains shown, Human Cγ1/Cκ constant regions; HEK-293) VH: QVTLRESGPALVKPTQTLTLTCTFSGFSLSTSGMGVGWIRQPPGKALEWLAHIWWDDDKRYNPALKSRLTISKDTSKNQVVLTMTNMDPVDTATYYCAAINPAWFAYWGQGTLVTVSS VL: DIVMTQSPDSLAVSLGERATINCKASQSVDFDGDSFMNWYQQKPGQPPKLLIYTTSNLESGVPDRFSGSGSGTDFTLTISSLQAEDVAVYYCQQSNEDPYTFGQGTKLEIK | binds |
| hu3G8VH-30/hu3G8VL-1 (antibody, V domains shown, Human Cγ1/Cκ constant regions; HEK-293) VH: QVTLRESGPALVKPTQTLTLTCTFSGFSLSTSGVGVGWIRQPPGKALEWLAHIWWDDDKRYSPSLKSRLTISKDTSKNQVVLTMTNMDPVDTATYYCAQINPAYFDYWGQGTLVTVSS VL: DIVMTQSPDSLAVSLGERATINCKASQSVDFDGDSFMNWYQQKPGQPPKLLIYTTSNLESGVPDRFSGSGSGTDFTLTISSLQAEDVAVYYCQQSNEDPYTFGQGTKLEIK | binds |
